Entries and their IC50 values follow.
Target Entity: succinate dehydrogenase (Botrytis cinerea, UniProt A0A384J5E4+A0A384J8V8+A0A384JHJ5)
Construct: succinate-DCPIP reductase assay with KCN
Sequence (A0A384J5E4 1-300): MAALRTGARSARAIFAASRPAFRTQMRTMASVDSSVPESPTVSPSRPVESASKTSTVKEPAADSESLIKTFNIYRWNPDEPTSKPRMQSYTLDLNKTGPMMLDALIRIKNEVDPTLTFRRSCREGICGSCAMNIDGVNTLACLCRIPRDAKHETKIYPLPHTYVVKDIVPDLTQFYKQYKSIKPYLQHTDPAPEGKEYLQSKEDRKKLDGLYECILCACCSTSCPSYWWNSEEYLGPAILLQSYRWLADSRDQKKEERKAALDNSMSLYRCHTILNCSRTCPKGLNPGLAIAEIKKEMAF
Sequence (A0A384J8V8 1-189): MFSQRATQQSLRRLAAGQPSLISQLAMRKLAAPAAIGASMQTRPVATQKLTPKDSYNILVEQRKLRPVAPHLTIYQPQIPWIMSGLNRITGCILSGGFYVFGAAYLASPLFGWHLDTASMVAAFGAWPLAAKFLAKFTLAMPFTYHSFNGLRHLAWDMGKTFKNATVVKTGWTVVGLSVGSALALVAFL
Sequence (A0A384JHJ5 1-192): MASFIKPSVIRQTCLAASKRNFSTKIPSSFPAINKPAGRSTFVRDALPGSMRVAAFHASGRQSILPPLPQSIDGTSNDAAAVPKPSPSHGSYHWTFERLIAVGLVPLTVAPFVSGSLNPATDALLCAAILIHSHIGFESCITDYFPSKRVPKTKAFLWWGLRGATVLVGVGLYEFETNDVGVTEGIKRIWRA
Sequence (A0A384K456 1-647 partner): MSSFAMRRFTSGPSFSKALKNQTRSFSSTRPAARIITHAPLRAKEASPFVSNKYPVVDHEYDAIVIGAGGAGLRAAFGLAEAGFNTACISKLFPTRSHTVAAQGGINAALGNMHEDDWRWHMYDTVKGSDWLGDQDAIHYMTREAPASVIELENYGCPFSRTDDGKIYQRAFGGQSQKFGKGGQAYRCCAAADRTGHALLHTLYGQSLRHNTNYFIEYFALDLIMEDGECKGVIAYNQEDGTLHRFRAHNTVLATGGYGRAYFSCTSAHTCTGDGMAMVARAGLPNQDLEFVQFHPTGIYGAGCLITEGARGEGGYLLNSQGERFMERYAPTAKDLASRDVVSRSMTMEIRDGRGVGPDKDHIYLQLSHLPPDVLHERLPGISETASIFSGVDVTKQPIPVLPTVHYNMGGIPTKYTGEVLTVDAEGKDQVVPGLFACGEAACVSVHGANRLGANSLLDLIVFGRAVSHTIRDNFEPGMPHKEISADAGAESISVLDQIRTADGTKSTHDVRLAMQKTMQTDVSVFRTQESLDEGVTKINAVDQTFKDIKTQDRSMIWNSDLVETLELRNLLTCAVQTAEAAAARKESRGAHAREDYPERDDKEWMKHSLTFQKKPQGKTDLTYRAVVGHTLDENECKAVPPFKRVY
Assay Explanation: Enzyme inhibition: succinate dehydrogenase activity in Botrytis cinerea mitochondria (DCPIP reduction)
Assay type: biochemical
Test Context: concentration required to inhibit the rate of DCPIP reduction by 50%; Botrytis cinerea isolate Nick mitochondria; read-out: I50 (μM conc.)
The reply should contain only the number, in µM.

Would you please look over these solved cases?
Asked: Requested read-out: IC50. Entry: Cn1nc(C(F)(F)F)c(C(=O)Nc2ccccc2C2CCCCC2)c1Cl
Given back: 0.059

Asked: Follow-up item: Cn1cc(C(=O)Nc2ccccc2C2=CCCCC2)c(C(F)F)n1
Given back: 0.0072

Asked: Follow-up item: Cn1cc(C(=O)Nc2ccccc2OCCCC2CCCC2)c(C(F)(F)F)n1
Given back: 0.047

Asked: Follow-up item: C=CCn1cc(C(=O)Nc2ccccc2C2CCCCC2)c(C(F)F)n1
Given back: 0.29

Asked: Follow-up item: Cn1cc(C(=O)Nc2ccccc2C2CCCC2)c(C(F)(F)F)n1
Given back: 0.016

Others:
Asked: Requested read-out: IC50. Entry: CC1CC=C(c2ccccc2NC(=O)c2cn(C)nc2C(F)(F)F)C1 (stereo not drawn)
Given back: 0.026

Asked: Follow-up item: Cn1cc(C(=O)Nc2ccccc2C2CCCCC2)c(C#N)n1
Given back: 0.065

Asked: Follow-up item: C[C@@H]1CCC[C@H](c2ccccc2NC(=O)c2cn(C)nc2C(F)(F)F)C1 (relative stereo)
Given back: 0.011

Asked: Follow-up item: Cc1ccc(C2CCCCC2)c(NC(=O)c2cn(C)nc2C(F)(F)F)c1
Given back: 0.031
